Attribution: PubChem BioAssay AID1159580

# assay details: chemical genetic growth profiling, strain panel (AID 1159580);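 also: tested at 20 µM; growth read once vehicle control cultures reached saturation at 30 °C; 1 = growth at the plate median or of vehicle wells; lower values mean less growth of the strain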
# run conditions: S. cerevisiae deletion strains, growth OD, locus YPL240C, strain hsp82, active compounds read low
In all, about 5,500 compounds went through this assay and about 2,000 (36%) were called active. About 18% were inconclusive and are not listed. Some of the results follow.

# compound, normalized growth
rows = [
    ("CCCC(CCC)C(=O)O", 1.02),
    ("CCN(CCCc1ccccc1)CCCc1ccccc1", 0.996),
    ("CC(=O)OCC(=O)[C@@]1(O)[C@H](OC(C)=O)CC2C3CCC4=CC(=O)C=C[C@]4(C)[C@@]3(F)[C@@H](O)C[C@@]21C (some centres undefined)", 1),
    ("CN(CCC(N)CC(=O)N[C@H]1C=CC(n2ccc(N)nc2=O)O[C@@H]1C(=O)O)C(=N)N (some centres undefined)", 0.924),
    ("Cc1ncc([N+](=O)[O-])n1CC(C)O (centres undefined)", 0.98),
    ("CN(C(=O)CN(CCO)CC(=O)N(C)C(C)(C)Cc1ccccc1)C(C)(C)Cc1ccccc1", 1),
    ("CC1=C2[C@H]3OC(=O)[C@@H](C)[C@@H]3CC[C@@]2(C)C=CC1=O", 0.964),
    ("S=P(N1CC1)(N1CC1)N1CC1", 0.996),
    ("C[C@@H]1O[C@@H](O[C@H]2C[C@@H](O)[C@]3(CO)C4C(CC[C@]3(O)C2)[C@@]2(O)CC[C@H](C3=CC(=O)OC3)[C@@]2(C)C[C@H]4O)[C@H](O)[C@H](O)[C@H]1O (some centres undefined)", 1.03),
]
